- System: Bacillus anthracis
- protocol.notes: Inhibition of recombinant Bacillus anthracis PurE assessed as inhibition of 4-carboxy-amino-imidazole ribonucleotide to N5-carboxy-amino-imidazole ribonucleotide conversion preincubated for 1.5 mins at 10 uM by mass spectrometry analysis
Below is a list of entries, each paired with its recorded inhibition value.
value.kind: inhibition (%)

                                item_smiles  reading
0  O=C(Nc1cccc(C(F)(F)F)c1)N1CCN(c2ccc3nncn3n2)CC1       14
1  Cc1ccc(C)c(-c2nnc(NC(=O)c3cccc(Cl)c3)o2)c1       19
2             Cc1sc2ccsc2[n+]1CC(=O)O.[Br-]       17
3  COc1cccc(-c2nc(Cn3nnc(C(=O)NCc4ccc(Cl)cc4)c3N)c(C)o2)c1OC        6
4  Cc1ccc(C)c(-c2nnc(NC(=O)c3cc(Cl)sc3Cl)o2)c1       20
5  Cc1c(C(=O)Nc2nnc(-c3cc(Cl)ccc3Cl)o2)c(-c2ccccc2)nc2ccccc12       19
6  O=C(NCc1c(-c2ccc(Cl)cc2)nc2n1CCS2)c1cccs1       11
7  COc1ccc(Cl)c(C(=O)Nc2nnc(-c3ccc(Br)cc3)o2)c1       15
8  O=C(Oc1ccccc1)Oc1ccc(N(C(=O)Oc2ccccc2)S(=O)(=O)c2ccc3ccccc3c2)cc1Br       28

meta.source: ChEMBL document CHEMBL3399984
